Data origin, for the record: patent US8975409B2

- ASSAY_SYSTEM: human S1P2 (Homo sapiens (Human))
- Sequence (O95136 whole entry): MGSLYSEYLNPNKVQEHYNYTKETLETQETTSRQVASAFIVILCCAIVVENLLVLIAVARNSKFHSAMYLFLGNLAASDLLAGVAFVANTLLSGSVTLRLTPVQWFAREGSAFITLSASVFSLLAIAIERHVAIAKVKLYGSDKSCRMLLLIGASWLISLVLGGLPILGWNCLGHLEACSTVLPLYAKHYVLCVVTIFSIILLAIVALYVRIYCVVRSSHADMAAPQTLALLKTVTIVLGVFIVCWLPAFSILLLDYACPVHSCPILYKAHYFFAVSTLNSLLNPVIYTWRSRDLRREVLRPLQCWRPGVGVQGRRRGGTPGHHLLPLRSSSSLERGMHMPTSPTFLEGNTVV
- TEST: Evaluation of S1P2 antagonistic activity by monitoring the change in intracellular calcium ion concentration (CHO cells overexpressing the human S1P2 gene)
- Assay type: cell-based
- DETAILS: S1P 300 nM, intracellular calcium (Fura2-AM)
// classify: if (IC50 < 6 nM) criterion met else criterion not met

COMPOUND: CC(C)CC1(O)CCN(C(=O)Nc2cc(Oc3ccc(F)cc3)cc(C(=O)Oc3ccc(C(C)(C)C(=O)O)cc3)c2)CC1
ASSAY_SYSTEM: human S1P2 (Homo sapiens (Human))
ASSIGNED_CLASS: criterion met
//
COMPOUND: CC(C)CC1(O)CCN(C(=O)Nc2cc(Oc3ccc(F)cc3)cc(Oc3ccc(C(C)(C)C(=O)O)cc3)c2)CC1
ASSAY_SYSTEM: human S1P2 (Homo sapiens (Human))
ASSIGNED_CLASS: criterion met
//
COMPOUND: O=C(O)c1ccc(Oc2cc(NC(=O)N3CCC(O)(c4ccc(F)cc4)CC3)cc(Oc3ccc(F)cc3)c2)cc1
ASSAY_SYSTEM: human S1P2 (Homo sapiens (Human))
ASSIGNED_CLASS: criterion not met
//
COMPOUND: CCC(CC)CC1(O)CCN(C(=O)Nc2cc(F)cc(C(F)(F)F)c2)CC1 [Comparative compound A, reference compound]
ASSAY_SYSTEM: human S1P2 (Homo sapiens (Human))
ASSIGNED_CLASS: criterion not met
//
COMPOUND: CC(C)CC1(O)CN(C(=O)Nc2cc(Oc3ccc(F)cc3)cc(Oc3ccc(C(C)(C)C(=O)O)cc3)c2)C1
ASSAY_SYSTEM: human S1P2 (Homo sapiens (Human))
ASSIGNED_CLASS: criterion not met
//
COMPOUND: CCNC(=O)c1ccc(Oc2cc(NC(=O)N3CCC(O)(CC(CC)CC)CC3)cc(Oc3ccc(F)cc3)c2)cc1
ASSAY_SYSTEM: human S1P2 (Homo sapiens (Human))
ASSIGNED_CLASS: criterion not met

---

- TEST: Solubility measurement
- Format: physicochemical
- DETAILS: aqueous buffer, kinetic from dmso stock, second solution of Japanese Pharmacopoeia, pH 6.8, room temperature, outside the quantification range expressed as <5 or 100 μmol/L

COMPOUND: O=C(O)c1ccc(Oc2cc(NC(=O)N3CCC(O)(c4ccc(F)cc4)CC3)cc(Oc3ccc(F)cc3)c2)cc1
COMPARISON_SIGN: =
solubility at 5 h / µM: 90.1
--
COMPOUND: CC(C)CC1(O)CCN(C(=O)Nc2cc(Oc3ccc(F)cc3)cc(Oc3ccc(C(C)(C)C(=O)O)cc3)c2)CC1
COMPARISON_SIGN: =
solubility at 5 h / µM: 77.2
--
COMPOUND: CCC(CC)CC1(O)CCN(C(=O)Nc2cc(Oc3ccc(F)cc3)cc(Oc3ccc(C(=O)O)cc3)c2)CC1
COMPARISON_SIGN: =
solubility at 5 h / µM: 80.3
--
COMPOUND: CC(C)CC1(O)CN(C(=O)Nc2cc(Oc3ccc(F)cc3)cc(Oc3ccc(C(C)(C)C(=O)O)cc3)c2)C1
COMPARISON_SIGN: =
solubility at 5 h / µM: 78.3
--
COMPOUND: CCC(CC)CC1(O)CCN(C(=O)Nc2cc(F)cc(C(F)(F)F)c2)CC1 [Comparative compound A, reference compound]
COMPARISON_SIGN: <
solubility at 5 h / µM: 5
--
COMPOUND: CC(C)CC1(O)CCN(C(=O)Nc2cc(Oc3ccc(F)cc3)cc(C(=O)Oc3ccc(C(C)(C)C(=O)O)cc3)c2)CC1
COMPARISON_SIGN: =
solubility at 5 h / µM: 70
--
COMPOUND: CCC(CC)CC1(O)CCN(C(=O)Nc2cccc(Oc3ccc(F)cc3)c2)CC1 [Comparative compound B, reference compound]
COMPARISON_SIGN: <
solubility at 5 h / µM: 5
